# assay_system: T1, human IL-36α(Q12), truncated (human, UniProt Q9UHA7 6-158)
# T1 construct: Untagged after removal of the His-SUMO tag
# T1 sequence: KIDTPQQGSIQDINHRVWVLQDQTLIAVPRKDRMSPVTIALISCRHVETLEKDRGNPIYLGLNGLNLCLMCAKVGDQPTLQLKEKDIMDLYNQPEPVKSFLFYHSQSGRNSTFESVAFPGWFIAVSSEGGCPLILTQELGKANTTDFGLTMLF
# run_description: SPR, Biacore T200, antibody on chip, IL-36 as analyte, 1:1 Langmuir fit
readout_kind: koff (s⁻¹)

| binder | readout_kind | measured_value |
| --- | --- | --- |
| m/h 144D666C (antibody, human IgG1, lambda, V domains shown, Mouse VH/VL joined to human IgG1 constant and human Ig lambda (IGLC2) constant; also called chimeric mouse/human 144D666C) VH: EVQLQQSGAELVKPGASVKLTCTASGFNIKDTYIYWVKQRPAQGLEWIGRIDPANAYTKFDPKFQGKATLTADTSSNTAYLQLSSLTSEDTAVYYCTRFHWYGSSFFFDYWGQGTTLTVSS VL: QAVVTQESALTTSPGETVTLTCRSSTGAVTTSNYANWVQEKPDHLFTGLIGGTDNRPPGVPARFSGSLIGDKAALTITGAQTEDEAIYFCALWYSNLWVFGGGTKLTVLG | koff | 0.000834 |
| m/h 144L249B (antibody, human IgG1, lambda, V domains shown, Mouse VH/VL joined to human IgG1 constant and human Ig lambda (IGLC2) constant; also called chimeric mouse/human 144L249B) VH: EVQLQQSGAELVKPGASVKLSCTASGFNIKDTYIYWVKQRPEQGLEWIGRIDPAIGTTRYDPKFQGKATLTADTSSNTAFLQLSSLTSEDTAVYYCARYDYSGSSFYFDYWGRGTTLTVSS VL: QAVVTQESALTTSPGETVTLTCRSSTGAVTTSNYANWVQEKPDHLFTGLIGGTNNRAPGVPARFSGSLIGDKAALTITGAQTEDEAIYFCALWYSNHLVFGGGTKLTVLG | koff | 0.000825 |
